System: PBMC
test protocol: Cytotoxicity against human PBMCs after 24 hrs by MTT assay
Format: cell-based
measurement kind: pIC50
pIC50 here is simply -log10 of the concentration when that concentration is written in mol/L.

Reading of pIC50 for Cc1cc(O)c2c(c1)C(=O)C(c1c(C)cc3c(c1O)C(=O)C=CC3=O)=CC2=O [DIOSPYRIN] with PBMC: 4.11

Reading of pIC50 for COc1cc(C)cc2c1C(=O)C=C(c1c(C)cc3c(c1OC)C(=O)C(NCCO)=CC3=O)C2=O with PBMC: 4.66

Reading of pIC50 for CCOc1cc(C)cc2c1C(=O)C=C(c1c(C)cc3c(c1OCC)C(=O)C(NCCO)=CC3=O)C2=O with PBMC: 4.18

Reading of pIC50 for COc1cc(C)cc2c1C(=O)C=C(c1c(C)cc3c(c1OC)C(=O)C=CC3=O)C2=O with PBMC: 4.27

Reading of pIC50 for CCOc1cc(C)cc2c1C(=O)C=C(c1c(C)cc3c(c1OCC)C(=O)C=CC3=O)C2=O with PBMC: 4.26

Reading of pIC50 for COc1cc(C)cc2c1C(=O)C=C(c1c(C)cc3c(c1OC)C(=O)C(SCCO)=CC3=O)C2=O with PBMC: 4.02

Reading of pIC50 for COc1cc(C)cc2c1C(=O)C1OC1(c1c(C)cc3c(c1OC)C(=O)C1OC1C3=O)C2=O (centres undefined) with PBMC: 4.01

Reading of pIC50 for CCOc1cc(C)cc2c(O)c(-c3c(C)cc4c(O)ccc(O)c4c3OCC)cc(O)c12 with PBMC: 4.22

Reading of pIC50 for COc1cccc2c1C(=O)c1c(O)c3c(c(O)c1C2=O)C[C@@](O)(C(=O)CO)C[C@@H]3O[C@H]1C[C@H](N)[C@H](O)[C@H](C)O1 [DOXORUBICIN] with PBMC: 4.81

Origin of values: ChEMBL document CHEMBL1147954
